Assay: NCI Yeast Anticancer Drug Screen. Data for the mlh1 rad18 strain (AID 175)
Conditions: S. cerevisiae mlh1 rad18 strain growth inhibition; at 50.0 µM (retest, dose inferred, filed as 5.0); stronger effect = higher value
Protocol: Growth inhibition of yeast strains with defined genetic alterations is measured as a screen for potential anti-cancer activity. Selected strains with alterations in DNA damage repair or cell cycle control were exposed to compounds and growth inhibition was measured relative to vehicle treated controls. The strain used in this assay is mlh1 rad18
Compounds without any hit were thinned out: in the full panel of roughly 79,000, 15% have a hit.
measured parameter: growth inhibition (%)
Numbers only; they are read as %.

Inquiry: Specify reported growth inhibition for the compound shown: `O=C1/C(=C/c2ccccn2)CCc2ccccc21`
Reply text: 97

Inquiry: Item `O=C1Nc2ccc(Br)cc2C1=O` : provide growth inhibition
Reply text: 91

Inquiry: // Input: `Clc1ccccc1C(c1ccccc1)(c1ccccc1)n1ccnc1` . Output its growth inhibition only.
Reply text: 99

Inquiry: Given `Cc1ccc(/C=N/Nc2cc(C)c3cccc(C)c3n2)s1` , respond with its growth inhibition.
Reply text: 93

Inquiry: Note growth inhibition for the compound shown: `CC(C)Nc1ccc(Nc2ccc(NC(C)C)cc2)cc1`
Reply text: 51

Inquiry: Please give measured growth inhibition of the following entry: `C[n+]1ccccc1C[n+]1ccccc1`
Reply text: 17

Inquiry: Determine from records and report growth inhibition for `COc1ccc2nc3c4c(nccc4c2c1)-c1ncccc1C3=O`
Reply text: 97

Inquiry: Indicate the recorded growth inhibition value for this compound: `CCSC(=O)c1ccc([N+](=O)[O-])o1`
Reply text: 99

Inquiry: Specify reported growth inhibition for the compound shown: N#CC1c2ccccc2C=CN1C(=O)CCCl (centres undefined)
Reply text: 38

====

Test: NCI Yeast Anticancer Drug Screen. Data for the mlh1 rad18 strain (AID 175)
Settings: S. cerevisiae mlh1 rad18 strain growth inhibition; at 50.0 µM; stronger effect = higher value
This is part of a sample that, as a whole, favours compounds with a hit. Of some 79,000 tested, about 15% had one in any assay.
measured parameter: growth inhibition (%)
Please give a number only; it is taken to be in %.

Inquiry: Read off the recorded growth inhibition for `O=C1CSC(=S)N1Cc1cccnc1`
Reply text: 54.9

Inquiry: Using the record for OC(CSc1ccccc1)CN1CCN(c2ccc(Cl)cc2)CC1 (stereo not given) , state its measured growth inhibition.
Reply text: 59.5

Inquiry: Specify growth inhibition for `CC1(O)CCCCCC1` and stop.
Reply text: 71.1

Inquiry: Quickly give me recorded growth inhibition for C/C=C/C=C/c1cc2cc3c(c(O)c2c(=O)[nH]1)C1(CC3)C(O)=c2c(=O)c3c(=O)cc(OC)c(=O)c=3c(=O)c2=C1O (stereo not given)
Reply text: 78.6

Inquiry: Item `O=Cc1ccc(-c2ccc(-c3ccc(CO)s3)o2)s1` : provide growth inhibition
Reply text: 65.3

====

Experiment: NCI Yeast Anticancer Drug Screen. Data for the cln2 rad14 strain (AID 165);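 further: 0% = growth equal to vehicle treated cultures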
Conditions: S. cerevisiae cln2 rad14 strain, at 50.0 µM (retest, dose inferred, filed as 5.0), stronger effect = higher value
About 79,000 compounds went through this panel and 15% of them were active in at least one assay; those are over-represented in the sample as a whole.
measured parameter: growth inhibition (%)
Write the answer as a number in %, unit excluded.

Inquiry: # return recorded growth inhibition for entry `Clc1ccccc1C(c1ccccc1)(c1ccccc1)n1ccnc1`
Reply text: 99

Inquiry: Answer with the recorded growth inhibition for the compound listed here: `Clc1ccc(Cc2nc3ccccc3s2)cc1`
Reply text: 99

Inquiry: Determine from records and report growth inhibition for `Clc1ccc(-n2ncc3c(NCCCN4CCOCC4)ncnc32)cc1`
Reply text: 62

Inquiry: Return value of growth inhibition for input `S=C(SSC(=S)N1CCOCC1)N1CCOCC1` , no commentary.
Reply text: 99

Inquiry: For the compound `O=C(c1ccc(O)c(Br)c1)c1ccc(O)c(Br)c1` , give its reported growth inhibition.
Reply text: 99

Inquiry: Using the record for `CC(C)N=C(N)/N=C(\N)Nc1ccc2ccc3ccccc3c2c1` , state its measured growth inhibition.
Reply text: 100

Inquiry: Name the recorded growth inhibition of the compound listed here: Oc1c(C(Nc2ccccc2)c2ccccc2)ccc2cccnc12 (stereo not given)
Reply text: 92

Inquiry: Please give measured growth inhibition of the following entry: `Cc1cc(C)c(C#N)c(Sc2nc(C)c([N+](=O)[O-])c(C)c2C#N)n1`
Reply text: 51

Inquiry: Kindly indicate its recorded growth inhibition. Item: `CC(C)Nc1ccc(Nc2ccc(NC(C)C)cc2)cc1`
Reply text: 73

Inquiry: Report growth inhibition, nothing else, for this compound: `Fc1ccc(NCCS)cc1`
Reply text: 66

Inquiry: Determine from records and report growth inhibition for `CC(=O)Nc1ccc(C(=O)CCl)cc1`
Reply text: 93

Inquiry: Provide one value: measured growth inhibition of `O=C1/C(=C\c2ccc([N+](=O)[O-])cc2)CS(=O)(=O)C/C1=C/c1ccc([N+](=O)[O-])cc1`
Reply text: 97

Inquiry: Tell me its growth inhibition given N#CC1c2ccccc2C=CN1C(=O)CCCl (stereo not given) as the entry.
Reply text: 42

Inquiry: Answer with the recorded growth inhibition of `O=C(c1ccccc1)c1cc2ccccc2oc1=O` only.
Reply text: 52

Inquiry: Give recorded growth inhibition. `O=C(CO)NCCO`
Reply text: -2

Inquiry: Item `C(=N\Nc1ccc2ccccc2n1)/c1ccccn1` : provide growth inhibition
Reply text: 63

Inquiry: Report measured growth inhibition; entry is `CN(C)c1ccc(/C=C/c2sc3ccc4ccccc4c3[n+]2C)cc1`
Reply text: 97

Inquiry: Specify reported growth inhibition for the compound shown: `C[C@@]1(CO)[C@H](O)CC[C@@]2(C)[C@H]1CC[C@H]1C[C@@H]3C[C@@]12CC[C@@]3(O)COC(=O)CN`
Reply text: 49

Inquiry: Quick one: give measured growth inhibition for `COc1cccc(N=N/C(=N\NC(=O)c2cc(Br)ccc2O)c2ccc(N(CCC#N)CCC#N)cc2OC)c1`
Reply text: 19

Inquiry: State its growth inhibition: OC(c1cc2ccc(C(F)(F)F)cc2c2cc(C(F)(F)F)ccc12)C1CCCCN1 (stereo not given)
Reply text: 97

Inquiry: # return recorded growth inhibition for entry `CCOC(=O)NC(/C=C/c1ccccc1)NC(=O)OCC`
Reply text: -33

Inquiry: Give the reported value of growth inhibition for this record: COC1CC(C)C(OC)c2cc(O)cc(c2O)NC(=O)/C(C)=C/C=C\C(C)C(OC(N)=O)/C(C)=C\C(C)C1OC (stereo not given)
Reply text: 95

Inquiry: Please supply the value of reported growth inhibition for the item `C/C(=N\Nc1ccc(Cl)cc1)C(=O)O`
Reply text: 98

Inquiry: Tell us which growth inhibition value is on record for CCCCCCC1N=C(N)N=C(N)N1c1cccc(Cl)c1 (stereo not given)
Reply text: 24

Inquiry: Give the reported growth inhibition for this compound. `[Cl-].[Rh+3].c1ccc(-c2ccnc3c2ccc2c(-c4ccccc4)ccnc23)cc1.c1ccc(-c2ccnc3c2ccc2c(-c4ccccc4)ccnc23)cc1.c1ccc(-c2ccnc3c2ccc2c(-c4ccccc4)ccnc23)cc1`
Reply text: 43

Inquiry: // fetch growth inhibition given entry `CC1=C(Cl)C[C@@H](/C(C)=C\Cl)O[C@@]1(O)C(Br)Br`
Reply text: 90

Inquiry: Give the value of growth inhibition reported for the following: `O=C1C=CC(O)=CC1=P(c1ccccc1)(c1ccccc1)c1ccccc1`
Reply text: -3

Inquiry: Return the recorded growth inhibition value; entry: `O=c1c2ccccc2ncn1O`
Reply text: 21

Inquiry: Indicate its recorded growth inhibition; the compound in question is OC(c1cc(-c2ccc(Cl)cc2)nc2c(Cl)cccc12)C1CCCCN1 (stereo not given)
Reply text: 66

Inquiry: For the compound `NCCN1C(=O)CNC1=S` , give its reported growth inhibition.
Reply text: -3

Inquiry: Name the recorded growth inhibition of the compound listed here: `O=C(Nc1ccc(Cl)c(Cl)c1)Nc1ccccc1O`
Reply text: 39

Inquiry: Name the recorded growth inhibition of the item `CC1=CC(=NC(=O)CBr)C=C/C1=N\S(=O)(=O)c1ccccc1` in your answer.
Reply text: 81

Inquiry: Given N#CC(I)CS(=O)(=O)c1ccccc1 (stereo not given) , respond with its growth inhibition.
Reply text: 99

Inquiry: Fill in reported growth inhibition for this entry: `Cc1ccc(NC(=S)C#N)cc1Cl`
Reply text: 40

Inquiry: Return growth inhibition (reported value) for this compound: CCCCCCCCCCCC(=O)OC(C)C(=O)NCCCC (stereo not given)
Reply text: -3

Inquiry: Please report growth inhibition for the following compound: `Nc1nc(N)c2cc(Sc3cccc(C(F)(F)F)c3)ccc2n1`
Reply text: 26

Inquiry: Complete the entry with growth inhibition for `CC(C)(C)CC(C)(C)c1ccc(OCCOCCSC(=N)N)cc1`
Reply text: 99

Inquiry: Answer with the recorded growth inhibition for the compound listed here: `O=C(CCl)N1c2ccccc2Sc2c1ccc1ccccc21`
Reply text: 69

Inquiry: Tell me growth inhibition reported for `COc1c(/C=C/C=O)cc2c(c1OC)OCO2`
Reply text: 50

Inquiry: Retrieve growth inhibition measured for `CCSc1nc2ccccc2o1` and print it.
Reply text: -2

Hello, the source for this data is PubChem BioAssay (NCI), in case you need it.
